Molecular target: T1, Mcl-1, Q07820
T1 chain: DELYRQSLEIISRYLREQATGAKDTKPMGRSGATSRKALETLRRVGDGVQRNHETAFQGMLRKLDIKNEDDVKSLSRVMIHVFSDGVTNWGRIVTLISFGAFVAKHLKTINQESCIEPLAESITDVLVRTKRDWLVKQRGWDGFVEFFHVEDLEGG
Experiment: peptide SPOT array, c-Myc-tagged receptor at 1 uM or 100 nM, anti-c-Myc-Cy3
OBSERVABLE: SPOT signal as a fraction of Bim BH3's signal on the same receptor and array
Please respond with just the number, no unit label.

A selection of reference data follows.
YYSSRQYASALKHIAEIIERGIRQHP [TTC30A] = 0.08
IQENVDISTVYQIFLDEVLGSGQFGI [PRKD3] = 0.05
DVGTGAGLLEIKKIGDEYFTFITDCK [CCT3] = 0.01
SVRYYPSGDAFASGLDDATCRLYDLR [GNB5] = 0.02
AEIEMDYSRNLEKLAERFLAKTRSTK [SRGAP2] = 0.08

# get_value(readout='SPOT signal as a fraction of Bim BH3's signal on the same receptor and array', item= QAGPVSSGLALRKLLDRVQLLNLLVT [CCDC57] )
0.42

What do you get for AEHEDDLPENLSEIADLWNSPTRTHG [CDH23] ?
0.02
